Hello, the source for this data is ChEMBL document CHEMBL1201862, in case you need it.

System: SF-295
run-description: NCI tumour cell line growth inhibition, 48 h
Calls of active or inactive are those of the source. No stated cut-off is given here; in the data, active = GI50 up to about 1.1 µM and inactive = higher.
assay-metric: GI50

>  <compound>
CC(=O)OC[C@@H](COC(=O)/C=C/c1ccc(O)cc1)OC1OC(CO)C(O)C(O)C1O (some centres not stated)

>  <result>
> 100 µM (inactive)

$$$$
>  <compound>
CCCCc1ccc(-n2sc3ncc(C)cc3c2=O)cc1

>  <result>
45.2 µM (inactive)

$$$$
>  <compound>
Cc1nc2c(=O)n(-c3ccccc3)c3ccccc3c2o1

>  <result>
> 100 µM (inactive)

$$$$
>  <compound>
CC1=NN(c2nc(N)nc(CF)n2)C(C)(C)C1

>  <result>
> 100 µM (inactive)

$$$$
>  <compound>
COc1cccc(N2C(=O)CSC2c2cc(OC)c(OC)c(OC)c2)c1 (configuration not stated)

>  <result>
21.8 µM (inactive)

$$$$
>  <compound>
Cc1cc(-c2ccc[nH]2)on1

>  <result>
> 100 µM (inactive)

$$$$
>  <compound>
Cc1oc2c(C)c3oc(=O)cc(C)c3cc2c1CNC(=O)[C@@H]1OCCOCCOCCOCCOCCOC1C(=O)O (some centres not stated)

>  <result>
> 100 µM (inactive)

$$$$
>  <compound>
Cc1cc(-c2nc3ccccc3s2)ccc1N

>  <result>
43 µM (inactive)

$$$$
>  <compound>
CC1=NN2C(=N)/C(=C/c3ccccc3)C(=O)N=C2S1

>  <result>
> 100 µM (inactive)

$$$$
>  <compound>
O=c1[nH]c2ccccc2nc1CBr

>  <result>
12.6 µM (inactive)

$$$$
>  <compound>
Cc1ccc2cccc(-c3cccc4ccccc34)c2n1

>  <result>
22.9 µM (inactive)

$$$$
>  <compound>
O=[N+]([O-])c1ccc(-c2noc(-c3ccccc3)c2C2=NCCN2)cc1

>  <result>
44.7 µM (inactive)

$$$$
